Test system: Vaccinia virus (Copenhagen)
Experiment: microbe, parasite or virus in culture
Format: cell-based
Settings: Orthopoxvirus vaccinia, HFF, read-out: Vaccinia EC50
recorded.endpoint: EC50 (µM)
The figure you give is taken to be in µM; do not add the unit.

For record CCCCCCCCCCCCCCCCOCCCOP(=O)(O)CO[C@H](CO)Cn1ccc(N)nc1=O the listed EC50 is 0.08
